System: Erythrocyte
assayNotes: Hemolytic activity in male Sprague-Dawley rat erythrocytes assessed as concentration required for 10% hemolysis incubated for 1 hr by absorbance based method
Assay type: toxicity, cell-based
Non-standard residues stand in square brackets, D forms with d. Residues, ends and D or L forms follow the SMILES beside them. *: point of attachment. X1 = NC(=O)[C@H](Cc1c[nH]cn1)NC(=O)CNC(=O)[C@@H](N)CN*; Nspe = C[C@H](NCC(=O)O)c1ccccc1; Nlys = NCCCCNCC(=O)O
endpointLabel: HC10 (µM)

[
  {
    "compound": "C[C@@H](c1ccccc1)N(CC(N)=O)C(=O)CN(CCCCN)C(=O)CN(C(=O)CN(C(=O)CN(CCCCN)C(=O)CN(C(=O)CN(C(=O)CN(CCCCN)C(=O)CN(C(=O)CN(C(=O)CN(CCCCN)C(=O)[C@H](Cc1c[nH]cn1)NC(=O)CNC(=O)CN)[C@@H](C)c1ccccc1)[C@@H](C)c1ccccc1)[C@@H](C)c1ccccc1)[C@@H](C)c1ccccc1)[C@@H](C)c1ccccc1)[C@@H](C)c1ccccc1 (H-GGH[Nlys][Nspe][Nspe][Nlys][Nspe][Nspe][Nlys][Nspe][Nspe][Nlys][Nspe]-NH2)",
    "assaySystem": "Erythrocyte",
    "endpointLabel": "HC10",
    "unitsLabel": "µM",
    "valueMeasured": 22.9
  },
  {
    "compound": "C[C@@H](c1ccccc1)N(CC(=O)NC[C@H](N)C(=O)NCC(=O)N[C@@H](Cc1c[nH]cn1)C(N)=O)C(=O)CN(CCCCN)C(=O)CN(C(=O)CN(C(=O)CN(CCCCN)C(=O)CN(C(=O)CN(C(=O)CN(CCCCN)C(=O)CN(C(=O)CN(C(=O)CNCCCCN)[C@@H](C)c1ccccc1)[C@@H](C)c1ccccc1)[C@@H](C)c1ccccc1)[C@@H](C)c1ccccc1)[C@@H](C)c1ccccc1)[C@@H](C)c1ccccc1 (H-[Nlys][Nspe][Nspe][Nlys][Nspe][Nspe][Nlys][Nspe][Nspe][Nlys][Nspe]-X1)",
    "assaySystem": "Erythrocyte",
    "endpointLabel": "HC10",
    "unitsLabel": "µM",
    "valueMeasured": 62.6
  }
]

====

assayNotes: Hemolytic activity in male Sprague-Dawley rat erythrocytes assessed as concentration required for 50% hemolysis incubated for 1 hr by absorbance based method
Format: toxicity, cell-based, Erythrocyte
Non-standard residues stand in square brackets, D forms with d. Residues, ends and D or L forms follow the SMILES beside them. Gly(N(CH2)2(3-indolyl)) = O=C(O)CNCCc1c[nH]c2ccccc12; Nspe = C[C@H](NCC(=O)O)c1ccccc1; Nphe = O=C(O)CNCc1ccccc1; Nlys = NCCCCNCC(=O)O
// values below are reported HC50 at 1 h

[
  {
    "molecule": "C[C@@H](c1ccccc1)N(CC(=O)N(CCCCN)CC(=O)N(CC(=O)N(CC(=O)N(CCCCN)CC(=O)N(CC(=O)N(CC(=O)N(CCCCN)CC(=O)N(CCc1c[nH]c2ccccc12)CC(=O)N(CCc1c[nH]c2ccccc12)CC(N)=O)[C@@H](C)c1ccccc1)[C@@H](C)c1ccccc1)[C@@H](C)c1ccccc1)[C@@H](C)c1ccccc1)C(=O)CN(C(=O)CNCCCCN)[C@@H](C)c1ccccc1 (H-[Nlys][Nspe][Nspe][Nlys][Nspe][Nspe][Nlys][Nspe][Nspe][Nlys][Gly(N(CH2)2(3-indolyl))][Gly(N(CH2)2(3-indolyl))]-NH2)",
    "comparisonOperator": "=",
    "HC50 at 1 h [µM]": 63.8
  },
  {
    "molecule": "C[C@@H](c1ccccc1)N(CC(N)=O)C(=O)CN(C(=O)CN(CCCCN)C(=O)CN(C(=O)CN(C(=O)CN(CCCCN)C(=O)CN(C(=O)CN(C(=O)CN(CCCCN)C(=O)CN(CCc1c[nH]c2ccccc12)C(=O)CN(CCc1c[nH]c2ccccc12)C(=O)CNCCCCN)[C@@H](C)c1ccccc1)[C@@H](C)c1ccccc1)[C@@H](C)c1ccccc1)[C@@H](C)c1ccccc1)[C@@H](C)c1ccccc1",
    "comparisonOperator": "=",
    "HC50 at 1 h [µM]": 63.6
  },
  {
    "molecule": "C[C@@H](c1ccccc1)N(CC(=O)N(CCCCN)CC(=O)N(CC(=O)N(CC(=O)N(CCCCN)CC(=O)N(CC(=O)N(CC(=O)N(CCCCN)CC(=O)N(CC(=O)N(CC(N)=O)Cc1ccccc1)Cc1ccccc1)Cc1ccccc1)Cc1ccccc1)Cc1ccccc1)Cc1ccccc1)C(=O)CN(Cc1ccccc1)C(=O)CNCCCCN (H-[Nlys][Nphe][Nspe][Nlys][Nphe][Nphe][Nlys][Nphe][Nphe][Nlys][Nphe][Nphe]-NH2)",
    "comparisonOperator": ">",
    "HC50 at 1 h [µM]": 100
  }
]

====

Tested on: Erythrocyte
assayNotes: Hemolytic activity in male Sprague-Dawley rat erythrocytes assessed as concentration required for 10% hemolysis incubated for 1 hr by absorbance based method
Assay type: toxicity, cell-based
Non-standard residues stand in square brackets, D forms with d. Residues, ends and D or L forms follow the SMILES beside them. Nspe = C[C@H](NCC(=O)O)c1ccccc1; Nphe = O=C(O)CNCc1ccccc1; Nlys = NCCCCNCC(=O)O

[
  {
    "molecule": "C[C@@H](c1ccccc1)N(CC(=O)N(CCCCN)CC(=O)N(CC(=O)N(CC(=O)N(CCCCN)CC(=O)N(CC(=O)N(CC(N)=O)Cc1ccccc1)Cc1ccccc1)[C@@H](C)c1ccccc1)[C@@H](C)c1ccccc1)C(=O)CN(C(=O)CN(CCCCN)C(=O)CN(Cc1ccccc1)C(=O)CN(Cc1ccccc1)C(=O)CN(CCCCN)C(=O)[C@H](Cc1c[nH]cn1)NC(=O)CNC(=O)CN)[C@@H](C)c1ccccc1 (H-GGH[Nlys][Nphe][Nphe][Nlys][Nspe][Nspe][Nlys][Nspe][Nspe][Nlys][Nphe][Nphe]-NH2)",
    "HC10 / µM": 56.5
  }
]

====

// values below are reported HC10
Tested on: Erythrocyte
assayNotes: Hemolytic activity in male Sprague-Dawley rat erythrocytes assessed as concentration required for 10% hemolysis incubated for 1 hr by absorbance based method
Format: toxicity, cell-based
Non-standard residues stand in square brackets, D forms with d. Residues, ends and D or L forms follow the SMILES beside them. Nspe = C[C@H](NCC(=O)O)c1ccccc1; Nphe = O=C(O)CNCc1ccccc1; Nlys = NCCCCNCC(=O)O
endpointLabel: HC10 (µM)

[
  {
    "compound": "C[C@@H](c1ccccc1)N(CC(N)=O)C(=O)CN(CCCCN)C(=O)CN(CCCCN)C(=O)CN(C(=O)CN(C(=O)CN(CCCCN)C(=O)CN(C(=O)CN(C(=O)CN(CCCCN)C(=O)CN(CCc1c[nH]c2ccccc12)C(=O)CN(CCc1c[nH]c2ccccc12)C(=O)CNCCCCN)[C@@H](C)c1ccccc1)[C@@H](C)c1ccccc1)[C@@H](C)c1ccccc1)[C@@H](C)c1ccccc1",
    "assaySystem": "Erythrocyte",
    "endpointLabel": "HC10",
    "comparisonOperator": "=",
    "valueMeasured": 75.3
  },
  {
    "compound": "C[C@@H](c1ccccc1)N(CC(=O)N(CCCCN)CC(=O)N(CC(=O)N(CC(=O)N(CCCCN)CC(=O)N(CC(=O)N(CC(=O)N(CCCCN)CC(=O)N(CC(=O)N(CC(N)=O)Cc1ccccc1)Cc1ccccc1)Cc1ccccc1)Cc1ccccc1)Cc1ccccc1)Cc1ccccc1)C(=O)CN(Cc1ccccc1)C(=O)CN(CCCCN)C(=O)[C@H](Cc1c[nH]cn1)NC(=O)CNC(=O)CN (H-GGH[Nlys][Nphe][Nspe][Nlys][Nphe][Nphe][Nlys][Nphe][Nphe][Nlys][Nphe][Nphe]-NH2)",
    "assaySystem": "Erythrocyte",
    "endpointLabel": "HC10",
    "comparisonOperator": ">",
    "valueMeasured": 100
  },
  {
    "compound": "C[C@@H](c1ccccc1)N(CC(=O)N(CCCCN)CC(=O)N(CC(=O)N(CC(=O)N(CCCCN)CC(=O)N(CC(=O)N(CC(=O)N(CCCCN)CC(=O)N(CC(=O)N(CC(N)=O)Cc1ccccc1)Cc1ccccc1)Cc1ccccc1)Cc1ccccc1)Cc1ccccc1)Cc1ccccc1)C(=O)CN(Cc1ccccc1)C(=O)CNCCCCN (H-[Nlys][Nphe][Nspe][Nlys][Nphe][Nphe][Nlys][Nphe][Nphe][Nlys][Nphe][Nphe]-NH2)",
    "assaySystem": "Erythrocyte",
    "endpointLabel": "HC10",
    "comparisonOperator": "=",
    "valueMeasured": 81.3
  },
  {
    "compound": "C[C@@H](c1ccccc1)N(CC(=O)N(CC(=O)N(CCCCN)CC(=O)N(CC(=O)N(CC(=O)N(CCCCN)CC(=O)N(CC(=O)N(CC(=O)N(CCCCN)CC(=O)N(CC(=O)N(CC(N)=O)Cc1ccccc1)Cc1ccccc1)Cc1ccccc1)Cc1ccccc1)Cc1ccccc1)Cc1ccccc1)Cc1ccccc1)C(=O)CN(CCCCN)C(=O)CNC(=O)[C@H](Cc1c[nH]cn1)NC(=O)CNC(=O)CN (H-GGHG[Nlys][Nspe][Nphe][Nlys][Nphe][Nphe][Nlys][Nphe][Nphe][Nlys][Nphe][Nphe]-NH2)",
    "assaySystem": "Erythrocyte",
    "endpointLabel": "HC10",
    "comparisonOperator": ">",
    "valueMeasured": 100
  }
]

The measurements presented in this section are drawn from ChEMBL document CHEMBL5584354.
